Numbers sourced from the supplement of paper PMC3334620.

- tested.system: Ybr033w (UniProt P38073)
- Sequence: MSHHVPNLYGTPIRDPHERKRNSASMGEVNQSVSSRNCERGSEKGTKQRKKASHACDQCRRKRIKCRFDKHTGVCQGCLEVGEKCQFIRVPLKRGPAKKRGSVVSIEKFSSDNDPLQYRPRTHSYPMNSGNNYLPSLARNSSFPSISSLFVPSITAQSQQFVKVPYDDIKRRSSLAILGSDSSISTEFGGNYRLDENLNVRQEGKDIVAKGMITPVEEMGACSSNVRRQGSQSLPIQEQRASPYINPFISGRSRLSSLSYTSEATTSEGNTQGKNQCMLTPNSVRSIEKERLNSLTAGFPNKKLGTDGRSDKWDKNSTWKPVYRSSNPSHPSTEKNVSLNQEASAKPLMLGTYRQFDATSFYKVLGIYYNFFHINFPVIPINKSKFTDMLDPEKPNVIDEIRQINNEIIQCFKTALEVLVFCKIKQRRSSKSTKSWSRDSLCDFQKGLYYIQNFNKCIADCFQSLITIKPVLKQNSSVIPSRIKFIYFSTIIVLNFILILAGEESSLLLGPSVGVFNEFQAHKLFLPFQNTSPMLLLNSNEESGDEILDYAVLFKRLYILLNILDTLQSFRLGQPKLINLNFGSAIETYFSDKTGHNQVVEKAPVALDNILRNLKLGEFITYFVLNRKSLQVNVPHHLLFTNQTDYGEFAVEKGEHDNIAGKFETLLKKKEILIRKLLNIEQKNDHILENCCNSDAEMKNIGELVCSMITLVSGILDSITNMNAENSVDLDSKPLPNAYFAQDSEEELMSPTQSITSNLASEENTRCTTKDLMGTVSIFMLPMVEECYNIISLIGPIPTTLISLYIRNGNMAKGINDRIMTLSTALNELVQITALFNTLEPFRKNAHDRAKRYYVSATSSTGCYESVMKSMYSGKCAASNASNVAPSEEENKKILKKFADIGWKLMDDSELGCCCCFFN
- method.notes: PBM E-score (8-mer binding enrichment) (E-score (-0.5 to 0.5)); higher = stronger / more preferred TF binding
- protocol.conditions: protein concentration: 200 nM; construct: GST-full length
Over roughly 33,000 sequences, “E-score (-0.5 to 0.5)” has its median near -0.012; the highest 2% begin near 0.29. What follows is part of a selection rich in the highest values, with near analogues and random picks from the rest.
Each entry below carries its reported PBM E-score.

{"macromolecule.sequence": "ATAAATTC", "PBM E-score": 0.308}
{"macromolecule.sequence": "CTAAATTC", "PBM E-score": 0.204}
{"macromolecule.sequence": "AGTTATTC", "PBM E-score": 0.345}
{"macromolecule.sequence": "GTTCGAGA", "PBM E-score": -0.0752}
{"macromolecule.sequence": "AATTATAA", "PBM E-score": 0.253}
{"macromolecule.sequence": "ATAGTAAA", "PBM E-score": 0.277}
{"macromolecule.sequence": "AGTTATTA", "PBM E-score": 0.173}
{"macromolecule.sequence": "AGAAATTG", "PBM E-score": 0.281}
{"macromolecule.sequence": "AAAAATTG", "PBM E-score": 0.221}
{"macromolecule.sequence": "ATAAATTA", "PBM E-score": 0.375}
{"macromolecule.sequence": "TCGTCCAA", "PBM E-score": 0.0311}
{"macromolecule.sequence": "GTAAATTA", "PBM E-score": 0.193}
{"macromolecule.sequence": "GTAGTAAA", "PBM E-score": 0.188}
{"macromolecule.sequence": "AATTATTA", "PBM E-score": 0.359}
{"macromolecule.sequence": "TTAGTAAA", "PBM E-score": 0.301}
{"macromolecule.sequence": "AATTATTG", "PBM E-score": 0.274}
{"macromolecule.sequence": "CTAGTAAA", "PBM E-score": 0.242}
{"macromolecule.sequence": "CTAAATTA", "PBM E-score": 0.173}
{"macromolecule.sequence": "GGTGAGAC", "PBM E-score": 0.0001}
{"macromolecule.sequence": "ATAAATCG", "PBM E-score": 0.218}
{"macromolecule.sequence": "CCCCAAAC", "PBM E-score": -0.101}
{"macromolecule.sequence": "AAAGGATG", "PBM E-score": 0.163}

###

Each entry below carries its reported PBM E-score.
- tested.system: Ybr033w (UniProt P38073)
- Sequence: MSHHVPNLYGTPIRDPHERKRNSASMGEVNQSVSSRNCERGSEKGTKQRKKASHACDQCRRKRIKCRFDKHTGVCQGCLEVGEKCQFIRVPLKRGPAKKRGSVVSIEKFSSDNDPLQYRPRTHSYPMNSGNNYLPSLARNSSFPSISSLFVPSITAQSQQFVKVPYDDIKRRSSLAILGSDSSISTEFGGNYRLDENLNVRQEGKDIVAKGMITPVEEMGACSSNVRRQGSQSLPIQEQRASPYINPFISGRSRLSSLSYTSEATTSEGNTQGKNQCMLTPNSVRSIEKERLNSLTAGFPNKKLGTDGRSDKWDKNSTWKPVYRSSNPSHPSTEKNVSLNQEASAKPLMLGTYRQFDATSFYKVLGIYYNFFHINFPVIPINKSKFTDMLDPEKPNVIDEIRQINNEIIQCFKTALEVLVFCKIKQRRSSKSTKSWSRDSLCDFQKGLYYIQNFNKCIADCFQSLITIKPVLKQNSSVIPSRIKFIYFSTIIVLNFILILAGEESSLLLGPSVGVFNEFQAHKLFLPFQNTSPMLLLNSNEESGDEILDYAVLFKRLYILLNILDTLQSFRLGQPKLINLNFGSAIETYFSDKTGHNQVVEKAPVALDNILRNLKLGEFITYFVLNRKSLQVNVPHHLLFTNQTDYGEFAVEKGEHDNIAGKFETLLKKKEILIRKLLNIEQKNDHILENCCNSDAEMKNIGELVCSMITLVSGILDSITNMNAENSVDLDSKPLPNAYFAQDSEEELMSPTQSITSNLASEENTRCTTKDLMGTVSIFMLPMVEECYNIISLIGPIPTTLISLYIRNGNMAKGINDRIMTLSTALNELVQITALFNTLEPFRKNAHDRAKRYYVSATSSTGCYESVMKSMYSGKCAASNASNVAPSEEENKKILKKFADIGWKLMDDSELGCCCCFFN
- method.notes: PBM E-score (8-mer binding enrichment) (E-score (-0.5 to 0.5)); higher = stronger / more preferred TF binding
- protocol.conditions: protein concentration: 200 nM; construct: GST-full length
In all, about 33,000 sequences were measured (“E-score (-0.5 to 0.5)”: median about -0.012, highest 2% from about 0.29 on). This is one part of a sample in which the highest values are shown more often than they occur.

{"macromolecule.sequence": "CGGTGCGC", "PBM E-score": -0.156}
{"macromolecule.sequence": "TCAAGAAA", "PBM E-score": 0.291}
{"macromolecule.sequence": "CGAACAAA", "PBM E-score": 0.191}
{"macromolecule.sequence": "AATTAATG", "PBM E-score": 0.273}
{"macromolecule.sequence": "ACTTTGGA", "PBM E-score": 0.156}
{"macromolecule.sequence": "ATGTATTG", "PBM E-score": 0.266}
{"macromolecule.sequence": "CGAACATA", "PBM E-score": 0.2}
{"macromolecule.sequence": "ATAATCCC", "PBM E-score": 0.189}
{"macromolecule.sequence": "GTGTATTA", "PBM E-score": 0.28}
{"macromolecule.sequence": "ACCATCGG", "PBM E-score": -0.118}
{"macromolecule.sequence": "ATTCGCCG", "PBM E-score": 0.0215}
{"macromolecule.sequence": "AGAAATAA", "PBM E-score": 0.36}
{"macromolecule.sequence": "AATTAAAG", "PBM E-score": 0.217}
{"macromolecule.sequence": "TTCAAGAA", "PBM E-score": 0.296}
{"macromolecule.sequence": "GTCTATCA", "PBM E-score": 0.0657}
{"macromolecule.sequence": "AGTCCAAC", "PBM E-score": -0.12}
{"macromolecule.sequence": "GGAAGAAA", "PBM E-score": 0.34}
{"macromolecule.sequence": "ACAAGAAA", "PBM E-score": 0.206}
{"macromolecule.sequence": "AGAAGAAA", "PBM E-score": 0.0907}
{"macromolecule.sequence": "ATGGAAAA", "PBM E-score": 0.32}
{"macromolecule.sequence": "GTAATCCA", "PBM E-score": 0.0788}
{"macromolecule.sequence": "ATGATCCC", "PBM E-score": 0.244}
{"macromolecule.sequence": "AGAACATA", "PBM E-score": 0.192}
{"macromolecule.sequence": "GAAATCCA", "PBM E-score": 0.108}
{"macromolecule.sequence": "AAAATCCA", "PBM E-score": 0.339}
{"macromolecule.sequence": "CTCTATTA", "PBM E-score": 0.152}
{"macromolecule.sequence": "AGGCGAGC", "PBM E-score": -0.174}
{"macromolecule.sequence": "GTCTATTA", "PBM E-score": -0.0198}
{"macromolecule.sequence": "AAATCGGC", "PBM E-score": -0.158}
{"macromolecule.sequence": "AATAGTCC", "PBM E-score": -0.0436}
{"macromolecule.sequence": "ATGATCCG", "PBM E-score": 0.412}
{"macromolecule.sequence": "AATTAAAC", "PBM E-score": 0.377}
{"macromolecule.sequence": "AATTAAAT", "PBM E-score": 0.276}
{"macromolecule.sequence": "AGAACAAT", "PBM E-score": 0.209}
{"macromolecule.sequence": "CGAAATAA", "PBM E-score": 0.264}
{"macromolecule.sequence": "ATGTATTA", "PBM E-score": 0.293}
{"macromolecule.sequence": "GGAAATAA", "PBM E-score": 0.284}
{"macromolecule.sequence": "CGGTATGA", "PBM E-score": 0.0788}
{"macromolecule.sequence": "ACAATCCG", "PBM E-score": 0.0606}
{"macromolecule.sequence": "AATTAAGA", "PBM E-score": 0.171}
{"macromolecule.sequence": "GGAACATA", "PBM E-score": 0.313}
{"macromolecule.sequence": "GGCCTTGA", "PBM E-score": -0.0647}
{"macromolecule.sequence": "CGAAGAAA", "PBM E-score": 0.156}
{"macromolecule.sequence": "CCAAGAAA", "PBM E-score": 0.167}
{"macromolecule.sequence": "AGAACAAG", "PBM E-score": 0.212}
{"macromolecule.sequence": "CGAAGAAC", "PBM E-score": 0.145}
